Assay: Posaconazole solubility in acidified Captisol solutions
Format: physicochemical
Details: acidified Captisol solution, pH 3.1, aqueous with cosolvent or surfactant or cyclodextrin, 20% Captisol, pH 3.1; calculated average of measured solubility at pH 3.0 and pH 3.2
ASSAY METRIC: solubility (µg/mL)

INSERT INTO measurements (compound, assay_metric, recorded_measurement) VALUES
  ('CC[C@@H]([C@H](C)O)n1ncn(-c2ccc(N3CCN(c4ccc(OC[C@@H]5CO[C@@](Cn6cncn6)(c6ccc(F)cc6F)C5)cc4)CC3)cc2)c1=O [Posaconazole, posaconazole]', 'solubility', 7800);

---

Experiment: Effect of co-solvents and non-ionic surfactants on posaconazole solubility in 100 mM Captisol
Assay type: physicochemical
Settings: Captisol solution with surfactant, pH 4.5, aqueous with cosolvent or surfactant or cyclodextrin, thermodynamic from solid, 100 mM Captisol pH 4.5 + 0.1% Tween 20
ASSAY METRIC: solubility at 3 days (µg/mL)

INSERT INTO results (chemical_structure, recorded_measurement) VALUES
  ('CC[C@@H]([C@H](C)O)n1ncn(-c2ccc(N3CCN(c4ccc(OC[C@@H]5CO[C@@](Cn6cncn6)(c6ccc(F)cc6F)C5)cc4)CC3)cc2)c1=O', 1710);

---

Assay: Posaconazole solubility in acidified Captisol solutions
Type: physicochemical
Settings: acidified Captisol solution, pH 3, aqueous with cosolvent or surfactant or cyclodextrin, 20% Captisol, pH 3.0
ASSAY METRIC: solubility (µg/mL)

INSERT INTO measurements (molecule, recorded_measurement) VALUES
  ('CC[C@@H]([C@H](C)O)n1ncn(-c2ccc(N3CCN(c4ccc(OC[C@@H]5CO[C@@](Cn6cncn6)(c6ccc(F)cc6F)C5)cc4)CC3)cc2)c1=O [Posaconazole, posaconazole]', 8700);

---

Assay: Effect of co-solvents and non-ionic surfactants on posaconazole solubility in 100 mM Captisol
Type: physicochemical
Conditions: Captisol solution with co-solvent, pH 4.5, aqueous with cosolvent or surfactant or cyclodextrin, thermodynamic from solid, 100 mM Captisol pH 4.5 + 10% PEG 400
ASSAY METRIC: solubility at 3 days

INSERT INTO assay_data (molecule, assay_metric, recorded_measurement) VALUES
  ('CC[C@@H]([C@H](C)O)n1ncn(-c2ccc(N3CCN(c4ccc(OC[C@@H]5CO[C@@](Cn6cncn6)(c6ccc(F)cc6F)C5)cc4)CC3)cc2)c1=O [Posaconazole, posaconazole]', 'solubility at 3 days', '1280 µg/mL');

---

Assay: Posaconazole solubility in modified β and γ-cyclodextrins
Assay type: physicochemical
Settings: pH 4.5, aqueous with cosolvent or surfactant or cyclodextrin, highest posaconazole solubility achieved
ASSAY METRIC: solubility

INSERT INTO results (chemical_structure, assay_metric, recorded_measurement) VALUES
  ('CC[C@@H]([C@H](C)O)n1ncn(-c2ccc(N3CCN(c4ccc(OC[C@@H]5CO[C@@](Cn6cncn6)(c6ccc(F)cc6F)C5)cc4)CC3)cc2)c1=O', 'solubility', '189 µg/mL');

---

Assay: Posaconazole solubility in acidified Captisol solutions
Type: physicochemical
Settings: acidified Captisol solution, pH 3.8, aqueous with cosolvent or surfactant or cyclodextrin, 20% Captisol, pH 3.8
ASSAY METRIC: solubility (µg/mL)

INSERT INTO measurements (chemical_structure, recorded_measurement) VALUES
  ('CC[C@@H]([C@H](C)O)n1ncn(-c2ccc(N3CCN(c4ccc(OC[C@@H]5CO[C@@](Cn6cncn6)(c6ccc(F)cc6F)C5)cc4)CC3)cc2)c1=O', 3100);

---

Experiment: Posaconazole solubility in acidified Captisol solutions
Format: physicochemical
Conditions: acidified Captisol solution, pH 3.6, aqueous with cosolvent or surfactant or cyclodextrin, 20% Captisol, pH 3.6
ASSAY METRIC: solubility

INSERT INTO measurements (chemical_structure, recorded_measurement) VALUES
  ('CC[C@@H]([C@H](C)O)n1ncn(-c2ccc(N3CCN(c4ccc(OC[C@@H]5CO[C@@](Cn6cncn6)(c6ccc(F)cc6F)C5)cc4)CC3)cc2)c1=O', '4000 µg/mL');

The values you see were collected from patent US9358297B2.
